assayComment: LM CLint (microsomal stability), rat
Format: in vitro ADME
studyConditions: microsomes
recordedMetric: microsomal CLint at 1 µM

Q. I have this compound here, "CCc1nc2ncc(Cl)cn2c1C(=O)NCc1ccc(-c2nc3n(n2)CCN(S(=O)(=O)C(F)(F)F)C3)cc1" , and I need its recorded microsomal CLint at 1 µM.
A. < 7.7 µL/min/mg

====

assayComment: LM CLint (microsomal stability), rat
Format: in vitro ADME
studyConditions: microsomes, 1 μm, read-out: CLint Microsomes, Rat (r)
recordedMetric: microsomal CLint at 1 µM (µL/min/mg)
# value in µL/min/mg; strip the unit string

Q. What microsomal CLint at 1 µM value was documented for this compound, "CCc1nc2ccc(C)cn2c1C(=O)NCc1ccc(-c2cc3n(n2)CCN(S(=O)(=O)C(F)(F)F)C3)cc1" ?
A. 80.7

Values from patent US20240199651A1
